Value source: patent US20250042994A1

Biological target: T1, Human CD19-his protein (human, UniProt P15391 20-291)
T1 construct: bought protein; also called human CD19 protein; recombinant human CD19-His; not shown: His tag
T1 sequence (looked up): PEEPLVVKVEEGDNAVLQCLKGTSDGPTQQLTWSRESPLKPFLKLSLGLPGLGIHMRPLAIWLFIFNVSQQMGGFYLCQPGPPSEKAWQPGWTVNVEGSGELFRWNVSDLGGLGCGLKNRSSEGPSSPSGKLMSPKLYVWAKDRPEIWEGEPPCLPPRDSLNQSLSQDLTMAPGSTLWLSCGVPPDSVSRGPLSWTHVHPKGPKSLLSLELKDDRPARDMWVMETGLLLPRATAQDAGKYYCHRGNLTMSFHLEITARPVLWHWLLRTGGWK
Assay: ELISA, antibody at 100 nM
Observable: OD450
// print number alone

Before answering, review these 5 worked examples.
Binder	OD450
F4.37.6 (antibody, human IgG1, V domains shown, human-murine chimeric antibody, human IgG1) VH: QVQLQQSGAELARPGASVKLSCKASGYTFTSFWMQWLKQRPGQGLEWIGTIYPGDGDTRYTQKFKGKATLTADKSSNTAYMQLSSLASEDSAVYYCARGALSNYGGFAYWGQGTLVTVSA VL: NIVLTQSPASLAVSLGQRATISCRASESVDSYGHSFMHWYQQKPGQPPKLLIYLASNLESGVPARFSGSGSRTDFTLTIDPVEADDAATYYCQQNNEDPWTFGGGTKLEIK	1.08
F4.191.1 (antibody, human IgG1, V domains shown, human-murine chimeric antibody, human IgG1) VH: QVQLQQPGAELVRPGASVKLSCKASGYTFTSYWINWVKQRPGQGLEWIGNIHPSDSYTNYNQKFKDKATLTVDKSSSTAYMQFSSPTSEDSAVYYCTREDYYYGSNYDAMDYWGQGTSVTVSS VL: DIVMTQSHKFMSTSVGDRVNITCKASQDVGSSVAWYQQKPGQSPKLLIYWASTRHAGVPDRFTGSGSGADFTLTISNVQSEDLADYFCQQYSTYPLTFGAGTKLELK	1.69
F3.113.16 (antibody, human IgG1, V domains shown, human-murine chimeric antibody, human IgG1) VH: QVQLQQPGAELVKPGASVKLSCKASGYTFTNYWMQWVKQRPGQGLEWIGEIDPSDSYINYNQKFKGKATLTADTSSSTAYMQLSSLTYEDSAVYYCARPVTVPWYFDVWGTGTTVTVSS VL: EIVLTQSPTTMAASPGEKITITCSATSSISSNYLHWYQQKPGFSPKLLIYRTSNLASGVPARFSGSGSGTSYSLTIGTMEAEDVATYYCQQGSAIPRIFTFGSGTKLEIK	0.38
F5.7.1 (antibody, human IgG1, V domains shown, human-murine chimeric antibody, human IgG1) VH: QVTLKESGPGILQPSQTLSLTCSFSGFSLTTFGMGVGWIRQPSGKGLEWLTHIWWDDDKYYNPALKSRLTISKDTSKNQVFLRIANVDTADTATYYCARVITTGVPYFDYWGQGTTLTVSS VL: ENVLTQSPAIMSASPGEKVTMTCRASSSVSSSYLYWYQQKSGASPKLWISSTSNLASGVPARFSGSGSGTSYSLTINSVEAEDAATYYCQQYSGYPWTFGGGTKLEIK	1.91
F4.107.12 (antibody, human IgG1, V domains shown, human-murine chimeric antibody, human IgG1) VH: EVQLQQSGPELVKPGASVKMSCKASGYTFTSYVLHWVRQKPGQGLEWIGYFNPYNDGTEYNEKFKGKAILTSDKSSSTAYMELNSLTSEDSAVYYCVGGTYYYGSSYPFAYWGQGTLVTVST VL: DVVMTQISLSLPVSLGDQASISCRSSQSLIHSNGNTYLQWYLQKPGQSPKLLIYKVSNRLSGVPDRFSGSGSGTDFTLKISRVEAEDLGVYFCSQSTHVPYTFGGGTKLEIK	1.77

Proceed to the following item.
Challenge: Request the reported OD450 associated with F5.11.2 (antibody, human IgG1, V domains shown, human-murine chimeric antibody, human IgG1) VH: EVQLVESGGDLVKPGGSLKLSCAASGFTFSSYGMSWVRQTPDKRLEWVATISHGGSYTHYPDSVKGRFTISRDNAKNTLYLQMNSLKSEDTAMYYCVRLPITTVEAPYFFDYWGQGTTLTVSS VL: DIQMTQTTSSLSASLGDRVTISCRASQDIRNYLNWYQQKPDGTVKLLIYYTSILHSGVPSRFSGSGSGTDYSLTINNLEQEDVATYFCQQGNTLYTFGGGTEVELR
Response given: 3.01
